Attribution: ChEMBL document CHEMBL4477257

The entries below are paired with their reported viability at 10 µM.
Test system: MCF7
Test: Cytotoxicity against human MCF7 cells assessed as cell viability at 10 uM after 2 days by MTT assay relative to control
Assay type: functional
Conditions: MCF7, 48 h, read-out: Activity
READOUT: viability at 10 µM (%)

COc1cccc2c1C(=O)c1c(O)c3c(c(O)c1C2=O)C[C@@](O)(C(=O)CO)C[C@@H]3O[C@H]1C[C@H](N)[C@H](O)[C@H](C)O1.Cl [DOXORUBICIN HYDROCHLORIDE]
27.5
CC(=O)c1cc(-c2ccc(F)cc2)cc2cc(-c3ccccc3)[nH]c12
73.8
COc1ccc(-c2cc(C(C)=O)c3[nH]c(-c4ccc(F)cc4)cc3c2)cc1
52.9
